Method Summary: Compressibility: tensile strength of compressed tablets
Format: physicochemical
Reported Conditions: 80 mg, Φ6 mm round tooling, 3 kN, after 24 hours at room temperature; T=2H/πDL
Measurement Type: Tensile strength (MPa)
A number alone suffices; assume MPa.

What value of Tensile strength has been recorded for this entry: CN(C)CC1CCOC1(c1ccccc1)c1ccccc1.CN(C)CC1CCOC1(c1ccccc1)c1ccccc1.Cl.Cl.O=C(O)C(O)C(O)C(=O)O (stereo not shown) [Form CSII]
0.705

For CN(C)CC1CCOC1(c1ccccc1)c1ccccc1.CN(C)CC1CCOC1(c1ccccc1)c1ccccc1.Cl.Cl.O=C(O)CC(O)C(=O)O (racemic) [Form CSIV] then?
0.705

For CN(C)CC1CCOC1(c1ccccc1)c1ccccc1.Cl.O=C(O)CC(O)(CC(=O)O)C(=O)O (stereo not shown) [Form CSIII] then?
0.707

For CN(C)CC1CCOC1(c1ccccc1)c1ccccc1 (stereo not shown) [Form I in the prior art, reference compound] then?
0.552
